molecules and their reported emission maximum
Assay: solvent given as SMILES
Settings: in Cc1ccccc1
reported-metric: emission maximum (nm)

# input-smiles, reported-metric, uom, recorded-number
records = [
    ("c1cc2c3c(cccc3c1)NC(c1ccc3ccc4cccc5ccc1c3c45)N2", "emission maximum", "nm", 502),
    ("c1ccc(-c2nnc(-c3ccc(N4c5ccccc5Oc5ccccc54)cc3)o2)cc1", "emission maximum", "nm", 495),
    ("F[B-]1(F)n2c(c3cccc4cccc2c43)=Nc2ccc3ccccc3[n+]21", "emission maximum", "nm", 511),
    ("CC(C)(C)c1ccc(-c2nnc(-c3c(-n4c5ccccc5c5ccccc54)c(-n4c5ccccc5c5ccccc54)c(-n4c5ccccc5c5ccccc54)c(-n4c5ccccc5c5ccccc54)c3-n3c4ccccc4c4ccccc43)o2)cc1", "emission maximum", "nm", 482),
    ("c1ccc(-c2nc(-c3ccccc3)nc(-c3ccc(-n4c5ccccc5c5cc(-n6c7ccccc7c7ccccc76)ccc54)cc3)n2)cc1", "emission maximum", "nm", 458),
    ("CCC1(CC)c2cc(B(c3c(C)cc(C)cc3C)c3c(C)cc(C)cc3C)ccc2-c2ccc(N(c3ccccc3)c3ccccc3)cc21", "emission maximum", "nm", 448),
]
